- Measurement Description: protein stability index of a GFP-peptide fusion (GPS, HEK-293T) (PSI 1-6); higher = more stable;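 further: 24-mer peptide tiles fused after GFP, lentivirally expressed, FACS-sorted into six equal bins by GFP/DsRed ratio, decoded by Illumina sequencing, PSI is the read-weighted mean bin number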
- Measurement Conditions: treatment: DMSO; c terminus: a fixed tail appended
protein stability index: recorded values

VQAIFSGDPEEIRMLIHKTEDVNT [ANKRD44]	3.76
TNLPIFKLKESTVRRRYSDFEWLR [SNX3]	2.62
IAKAEETHSSLSQELQARLQTVTR [CCDC89]	4.25
LLPYFYIIYMAILLTHRCLRDEHR [DHCR7]	3.25
AAGGDGELGSPLRRSISSSRSENV [PSD2]	5.07

What does the record list as protein stability index for AGKWRSYKGELFDKTPVLLTDYPV [MYORG] ?
2.32

// next record RYRGLPAPGPSPADKKRSGKKKIS [WAS]
4.76

Another: DFGSNCRFSHMSERDLQELSIQVE [ZMAT5]
3.05

What would you report for VAQCLRDLVAMQWADAAGEAVPEG [ZSWIM9] ?
2.92

Same question for HKKDCAREKPFKCQECGKTFRVSS [ZNF75A] please.
3.45

What would you report for HPVCSLCWSRDGHKLVSASTDNIV [RBBP5] ?
2.72

RLEQEIATYRRLLEGEDAHLSSQQ [KRT16] , same question.
3.95

Follow-up item: EQVAQLKQKVMTHVSNGCQLLLGV [JUNB]
2.33
